System: HOP-92 NSCLC
Assay: NCI-60 one-dose screen, 48 h (100 = growth as untreated, 0 = no growth, -100 = all killed)
Details: 10 µM unless noted
This is part of a sample that, as a whole, favours compounds with a hit. Of some 83,000 tested, about 20% had one in any assay.
quantity.name: growth (%)

1. COc1cc(-c2nc3ccc(C)cc3[nH]2)ccc1OCC(=O)N=Nc1c(O)[nH]c2ccc(Cl)cc12 ... 2.42
2. O=C1Nc2ccccc2/C1=C/c1cn(C[C@@H](O)Cn2c3ccccc3c(=O)c3ccccc32)c2ccccc12 ... 52.9
3. CCOC(=O)c1c(NC(=O)c2ccc(C(C)(C)C)cc2)sc2cc(O)ccc12 ... 96.8

Data provenance is PubChem BioAssay (NCI).
